Molecular target: human thrombin (Homo sapiens, UniProt P00734)
Construct: Assays of human a-thrombin
Experiment: biochemical
Settings: 25° C., pH 7.4
pKi: −log10 of the molar value.
MEASURED METRIC: pKi

// `NCCNCCS(=O)(=O)N[C@@H](C(=O)N1CCC[C@H]1C(=O)NCc1cc(Cl)ccc1Cl)C(c1ccccc1)c1ccccc1` : pKi value = > 8.00

Item: CC(C)(C)NC(=O)C1CNCCN1C(=O)CN[C@@H](C(=O)N1CCC[C@H]1C(=O)NCc1cc(Cl)ccc1Cl)C1CCCCC1 (stereo partly drawn) | pKi: 6.30 to 8.00

Note to self: pKi recorded for `CN1CCN(C(=O)CN[C@@H](C(=O)N2CCC[C@H]2C(=O)NCc2cc(Cl)ccc2Cl)C(c2ccccc2)c2ccccc2)CC1` was > 8.00

For reference, reported pKi for CCN(CC)C(=O)CN[C@@H](C(=O)N1CCC[C@H]1C(=O)NCc1cc(Cl)ccc1Cl)C(c1ccccc1)c1ccccc1 [drawing 53] stands at 6.30 to 8.00

Given item `Cc1ccc(C)c(CNC(=O)[C@@H]2CCCN2C(=O)[C@H](N)C(c2ccccc2)c2ccccc2)c1` , the value recorded as its pKi is 6.30 to 8.00

What the record says about `COc1ccc(OC)c(CNC(=O)[C@@H]2CCCN2C(=O)[C@H](NC(=O)OCCN(C)C)C(c2ccccc2)c2ccccc2)c1` : pKi is 6.30 to 8.00

According to the records, this compound CCNC(=O)COc1ccc(Cl)cc1CNC(=O)[C@@H]1CCCN1C(=O)[C@H](N)C(C)C [CH3, CH3, H] displays pKi of 6.30 to 8.00

Lab note: measured pKi of `CCc1ccc(O)c(CNC(=O)[C@@H]2CCCN2C(=O)[C@H](N)C(c2ccccc2)c2ccccc2)c1` was 6.30 to 8.00

The compound identified as `CCNC(=O)COc1ccc(Cl)cc1CNC(=O)[C@@H]1CCCN1C(=O)[C@H](N)CCC1CC1` registered its pKi at > 8.00

Value of measured pKi for the entry N[C@@H](C(=O)N1CCC[C@H]1C(=O)NCc1cc(Cl)ccc1OCC(=O)O)C1CCCCC1 [OH] : > 8.00

Looking up CCNC(=O)COc1ccc(Cl)cc1CNC(=O)[C@@H]1CCCN1C(=O)[C@H](N)CCC(C)C [H, CH2 CH(CH3)2, H] , I see its pKi listed as > 8.00

// O=C(O)CN[C@@H](C(=O)N1CCC[C@H]1C(=O)NCc1cc(Cl)ccc1Cl)C(c1ccccc1)c1ccccc1 [drawing 41] : pKi value = 6.30 to 8.00

Note to self: pKi recorded for CCNC(=O)COc1ccc(Cl)cc1CNC(=O)[C@@H]1CCCN1C(=O)[C@H](N)CC [CH3, H, H] was 6.30 to 8.00

Sample N[C@@H](C(=O)N1CCC[C@H]1C(=O)NCc1cc(Cl)ccc1OCC(=O)NCCO)C1CCCCC1 [NH(CH2)2 OH] ; pKi observed: > 8.00

The recorded pKi for O=C(O)CN[C@@H](C(=O)N1CCC[C@H]1C(=O)NCc1cc(Cl)ccc1Cl)C(c1ccccc1)c1ccccc1 [drawing 63] is 6.30 to 8.00
